# Tested on: KB
# test-method-notes: Cytotoxicity against human KB cells assessed as reduction in cell survival after 72 hrs by sulforhodamine B assay
# Format: functional, cell-based
# test-context: Homo sapiens, KB, 72 h
property-measured: pIC50
Note: pIC50 values are expressed as the negative base-10 logarithm of concentration in M.

## Input Please report the recorded pIC50 for `COC1=C\[C@@H](CC=O)C[C@@H](C)[C@@H](O[C@H]2CC[C@H](N(C)C)[C@@H](C)O2)/C=C/C=C/C[C@@H](C)OC(=O)\C=C\1` .
## Output 3.88

###

# test-method-notes: Solubility of compound in water
# Type: physicochemical
# test-context: water; read-out: solubility
property-measured: solubility

## Input Please report the recorded solubility for `COC1=C\[C@@H](CC=O)C[C@@H](C)[C@@H](O[C@H]2CC[C@H](N(C)C)[C@@H](C)O2)/C=C/C=C/C[C@@H](C)OC(=O)\C=C\1` .
## Output 700 µg/mL

From: ChEMBL document CHEMBL4431333
